In this section we review reported Fold Change values for a set of molecules.
- Tested on: human HL60 cells
- method-description: SWATH-MS proteomics, differential protein representation, akirin2 KO vs WT HL60 cells
- Type: cell-based
- test-conditions: SWATH-MS, akirin2 KO vs WT HL60 cells, under-represented in KO
readout: Fold Change

1. sp¦O96008¦TOM40_HUMAN (protein, UniProt O96008 1-361, looked up) Mitochondrial import receptor …: MGNVLAASSPPAGPPPPPAPALVGLPPPPPSPPGFTLPPLGGSLGAGTSTSRSSERTPGAATASASGAAEDGACGCLPNPGTFEECHRKCKELFPIQMEGVKLTVNKGLSNHFQVNHTVALSTIGESNYHFGVTYVGTKQLSPTEAFPVLVGDMDNSGSLNAQVIHQLGPGLRSKMAIQTQQSKFVNWQVDGEYRGSDFTAAVTLGNPDVLVGSGILVAHYLQSITPCLALGGELVYHRRPGEEGTVMSLAGKYTLNNWLATVTLGQAGMHATYYHKASDQLQVGVEFEASTRMQDTSVSFGYQLDLPKANLLFKGSVDSNWIVGATLEKKLPPLPLTLALGAFLNHRKNKFQCGFGLTIG = 0.6912
2. sp¦O75607¦NPM3_HUMAN (protein, UniProt O75607 2-178, looked up) Nucleoplasmin-3: AAGTAAALAFLSQESRTRAGGVGGLRVPAPVTMDSFFFGCELSGHTRSFTFKVEEEDDAEHVLALTMLCLTEGAKDECNVVEVVARNHDHQEIAVPVANLKLSCQPMLSLDDFQLQPPVTFRLKSGSGPVRITGRHQIVTMSNDVSEEESEEEEEDSDEEEVELCPILPAKKQGGRP = 0.6936
